System: D(4) dopamine receptor (Homo sapiens, UniProt P21917) | Read-out: log10 Ki | Origin: multiple publications
Sequence (P21917 whole entry): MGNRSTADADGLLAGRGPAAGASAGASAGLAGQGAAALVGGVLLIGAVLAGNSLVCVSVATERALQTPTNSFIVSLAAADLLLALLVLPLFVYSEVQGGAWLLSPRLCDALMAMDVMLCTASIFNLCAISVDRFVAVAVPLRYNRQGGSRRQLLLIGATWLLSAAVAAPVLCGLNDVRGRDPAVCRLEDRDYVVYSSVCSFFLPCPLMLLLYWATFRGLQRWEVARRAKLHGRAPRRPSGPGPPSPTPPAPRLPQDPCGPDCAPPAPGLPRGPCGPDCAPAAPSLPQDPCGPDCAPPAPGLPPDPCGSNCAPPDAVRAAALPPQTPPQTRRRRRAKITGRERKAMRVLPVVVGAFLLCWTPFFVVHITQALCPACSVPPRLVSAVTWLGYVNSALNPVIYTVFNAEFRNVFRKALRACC
All values: log10 Ki [nM].

Field log10 Ki (D(4) dopamine receptor (Homo sapiens, UniProt P21917)), entry Cc1cc(CO[C@H]2CCCN(Cc3cn4ccccc4n3)C2)ccc1F : 2.27

Simply: COc1ccccc1N1CCN(CCCCNC(=O)/C=C/c2ccc(F)cc2)CC1 , D(4) dopamine receptor (Homo sapiens, UniProt P21917), log10 Ki = 1.63

Sample Fc1cc(COC2CCN(Cc3ncc4ccccn34)CC2)ccc1Cl , system: D(4) dopamine receptor (Homo sapiens, UniProt P21917). Its log10 Ki is 2.20

Item O=C(CCc1cn(CCCCCCCCCCn2cc(CCC(=O)OC3(c4ccc(Cl)cc4)CCN(CCCC(=O)c4ccc(F)cc4)CC3)nn2)nn1)OC1(c2ccc(Cl)cc2)CCN(CCCC(=O)c2ccc(F)cc2)CC1 ; assay system D(4) dopamine receptor (Homo sapiens, UniProt P21917); log10 Ki reported as 1.95

For the molecule Fc1ccc(OC[C@@H]2CC[C@H]3CN(c4ccc(F)cc4)CCN3C2)cc1 , the measured log10 Ki on D(4) dopamine receptor (Homo sapiens, UniProt P21917) was 0.72

Form: item CC(C)(C)c1ccc(OC[C@@H]2CC[C@H]3CN(c4ncccn4)CCN3C2)cc1 ; test system D(4) dopamine receptor (Homo sapiens, UniProt P21917); log10 Ki: 1.30

Param item: COc1ccccc1N1CCN(Cc2cn(-c3ccccc3)nn2)CC1 ; param system: D(4) dopamine receptor (Homo sapiens, UniProt P21917); output log10 Ki: 0.43

Response field log10 Ki (D(4) dopamine receptor (Homo sapiens, UniProt P21917)) for item O=C1CCc2ccccc2N1CCCN1CCC(CCCCCO)CC1 : 0.64

The recorded log10 Ki with D(4) dopamine receptor (Homo sapiens, UniProt P21917) for Cc1ccc(CN2CCC(NC(=O)c3ccc4ccccc4c3)CC2)cc1 was 1.32

Given the molecule O=C(NCCCCCN1CCN(c2cccc(Cl)c2Cl)CC1)c1cccc2c1-c1ccccc1C2=O and test system D(4) dopamine receptor (Homo sapiens, UniProt P21917), the measured log10 Ki is 2.72

Item: CCCCCCn1cc(CN2CCC(O)(c3ccc(Cl)cc3)CC2)c2ccccc21 | System: D(4) dopamine receptor (Homo sapiens, UniProt P21917) | log10 Ki: 3.95

Field log10 Ki (system: D(4) dopamine receptor (Homo sapiens, UniProt P21917)) for entry COc1ccccc1N1CCN(CCCCNC(=O)c2ccc(I)s2)CC1 = 1.49

# lookup: O=C(NCN1CCN(c2ccccc2Cl)CC1)c1cccc(Cl)c1 on D(4) dopamine receptor (Homo sapiens, UniProt P21917), log10 Ki = 1.61

The reported D(4) dopamine receptor (Homo sapiens, UniProt P21917) log10 Ki of N#CC(C#N)=Cc1cccn1C1CCN(Cc2ccccc2)CC1 is 2.45

Log: D(4) dopamine receptor (Homo sapiens, UniProt P21917), molecule CCCN(CCCCNC(=O)c1ccc(OCCCc2cn(CCCCCCCCn3cc(CCCOc4ccc(C(=O)NCCCCN5CCN(c6ccccc6OC)CC5)cc4OC)nn3)nn2)c(OC)c1)C1Cc2ccccc2C1 , log10 Ki = 1.60

Simply: CC(C)(C)C(=O)NCCCCN1CCN2c3ccc(Cl)cc3CCC2C1 (stereo not given) , D(4) dopamine receptor (Homo sapiens, UniProt P21917), log10 Ki = 1.80

Form field, log10 Ki with D(4) dopamine receptor (Homo sapiens, UniProt P21917), item CCCN(CCC)[C@H]1CCn2nccc2C1 : 2.58

Reported D(4) dopamine receptor (Homo sapiens, UniProt P21917) log10 Ki for item CCc1cccc(N2CCN(CCC(c3cccc(OC)c3)c3cccc(OC)c3)CC2)c1Cl was 1.80

Measured log10 Ki for this entry COc1ccc(F)cc1[C@H]1C[C@@H]1CNCCCCOc1ccc2ccc(=O)[nH]c2c1 on D(4) dopamine receptor (Homo sapiens, UniProt P21917): 2.09
